# System: IL-6
# Protocol Notes: PBMC assay, LPS-induced IL-6 (Meso Scale)
# Assay type: cell-based
# Setup Conditions: Homo sapiens, compound at 10 μM, PBMCs, 100 ng/mL LPS 18-24 hrs

{"Compound": "O=C1CCC[C@H](N2Cc3c(OCc4ccc(CN5CCOCC5)c(Cl)c4)cccc3C2=O)C(=O)N1 [Compound 3]", "Uom": "%", "inhibition at 10 µM": 77}
{"Compound": "O=C1COC[C@H](N2Cc3c(OCc4ccc(CN5CCOCC5)cc4)cccc3C2=O)C(=O)N1 [Compound 16]", "Uom": "%", "inhibition at 10 µM": 78}
{"Compound": "O=C1CCC[C@H](N2Cc3cc(OCc4ccc(CN5CCOCC5)cc4)ccc3C2=O)C(=O)N1 [Compound 15]", "Uom": "%", "inhibition at 10 µM": 50}
{"Compound": "Cc1cnc(Nc2ccc(OCCCNC(=O)NCc3ccc(COc4cc(F)cc5c4CN([C@H]4CCC(=O)NC4=O)C5=O)cc3)cc2)nc1Nc1cccc(S(=O)(=O)NC(C)(C)C)c1 [Compound 18]", "Uom": "%", "inhibition at 10 µM": 45}
{"Compound": "Cc1cnc(Nc2ccc(OCCCNCC(=O)NCc3ccc(COc4cc(F)cc5c4CN([C@H]4CCCC(=O)NC4=O)C5=O)cc3)cc2)nc1Nc1cccc(S(=O)(=O)NC(C)(C)C)c1 [Compound 21]", "Uom": "%", "inhibition at 10 µM": 7}
{"Compound": "Cc1cnc(Nc2ccc(OCCCNCC(=O)NCc3ccc(COc4cccc5c4CN(C4CCC(=O)NC4=O)C5=O)cc3)cc2)nc1Nc1cccc(S(=O)(=O)NC(C)(C)C)c1 (stereo not shown) [Compound 17]", "Uom": "%", "inhibition at 10 µM": 100}
{"Compound": "Cc1cnc(Nc2ccc(OCCCNCC(=O)NCc3ccc(COc4cccc5c4CN([C@H]4CCC(=O)NC4=O)C5=O)cc3)cc2)nc1Nc1cccc(S(=O)(=O)NC(C)(C)C)c1 [Compound 24]", "Uom": "%", "inhibition at 10 µM": 1}

---

# Tested on: TNFα
# Protocol Notes: PBMC assay, LPS-induced TNFα (Meso Scale)
# Format: cell-based
# Setup Conditions: Homo sapiens, compound at 1 μM, PBMCs, 100 ng/mL LPS 18-24 hrs
Where inhibition at 1 µM equals or exceeds 90%, the correct label is satisfied; where it does not, the label is not satisfied.

{"Query Smiles": "Cc1cnc(Nc2ccc(OCCCNC(=O)NCc3ccc(COc4cc(F)cc5c4CN([C@H]4CCC(=O)NC4=O)C5=O)cc3)cc2)nc1Nc1cccc(S(=O)(=O)NC(C)(C)C)c1", "Assigned Category": "not satisfied"}
{"Query Smiles": "NCc1ccc2c(c1OCc1ccc(CN3CCOCC3)cc1)CN([C@H]1CCCC(=O)NC1=O)C2=O", "Assigned Category": "not satisfied"}
{"Query Smiles": "O=C1CCC[C@H](N2Cc3cc(OCc4ccc(CN5CCOCC5)cc4)ccc3C2=O)C(=O)N1", "Assigned Category": "not satisfied"}
{"Query Smiles": "O=C1CCC[C@H](N2Cc3c(OCc4ccc(CN5CCOCC5)cc4)cccc3C2=O)C(=O)N1", "Assigned Category": "satisfied"}
{"Query Smiles": "O=C1CCC[C@H](N2Cc3c(OCCc4ccc(CN5CCOCC5)cc4)cccc3C2=O)C(=O)N1", "Assigned Category": "not satisfied"}

---

# System: MV-4-11 cells
# Protocol Notes: Cell viability assay (CellTiter-Glo), MV-4-11 proliferation
# Format: cell-based
# Setup Conditions: Homo sapiens, MV4-11, 72 h; compound at 1 μM; 3 days
Labels assigned by inhibition at 1 µM range: group 1 = under 1%, group 2 = from 1% up to 8%, group 3 = 8% and over

{"Molecule": "O=C1CCC[C@H](N2Cc3c(OCc4ccc(CN5CCOCC5)cc4)cc(F)cc3C2=O)C(=O)N1 [Compound 7]", "Assigned Category": "group 1"}
{"Molecule": "O=C1CCC[C@H](N2Cc3cc(OCc4ccc(CN5CCOCC5)cc4)ccc3C2=O)C(=O)N1 [Compound 15]", "Assigned Category": "group 3"}
{"Molecule": "NCc1cccc(COc2cccc3c2CN([C@H]2CCCC(=O)NC2=O)C3=O)c1 [Compound 9, trifluoroacetic acid]", "Assigned Category": "group 2"}
{"Molecule": "Cc1cnc(Nc2ccc(OCCCNC(=O)NCc3ccc4c(c3OCc3ccc(CN5CCOCC5)cc3)CN([C@H]3CCCC(=O)NC3=O)C4=O)cc2)nc1Nc1cccc(S(=O)(=O)NC(C)(C)C)c1 [Compound 27]", "Assigned Category": "group 3"}
{"Molecule": "Cc1cnc(Nc2ccc(OCCCNCC(=O)NCc3ccc(COc4cc(F)cc5c4CN([C@H]4CCC(=O)NC4=O)C5=O)cc3)cc2)nc1Nc1cccc(S(=O)(=O)NC(C)(C)C)c1 [Compound 25]", "Assigned Category": "group 3"}
{"Molecule": "Cc1cnc(Nc2ccc(OCCCNCC(=O)NCc3ccc(COc4cccc5c4CN(C4CCC(=O)NC4=O)C5=O)cc3)cc2)nc1Nc1cccc(S(=O)(=O)NC(C)(C)C)c1 (stereo not shown) [Compound 17]", "Assigned Category": "group 3"}
{"Molecule": "NCc1ccc2c(c1OCc1ccc(CN3CCOCC3)cc1)CN([C@H]1CCCC(=O)NC1=O)C2=O [Compound 22, ditrifluoroacetic acid]", "Assigned Category": "group 2"}
{"Molecule": "Cc1cnc(Nc2ccc(OCCCNC(=O)NCc3ccc(COc4cccc5c4CN([C@H]4CCC(=O)NC4=O)C5=O)cc3)cc2)nc1Nc1cccc(S(=O)(=O)NC(C)(C)C)c1 [Compound 20]", "Assigned Category": "group 3"}
{"Molecule": "O=C1CCC[C@H](N2Cc3c(OCc4ccc(CN5CCOCC5)c(Cl)c4)cccc3C2=O)C(=O)N1 [Compound 3]", "Assigned Category": "group 1"}
{"Molecule": "O=C1CCC[C@H](N2Cc3c(OCc4ccc(C(=O)N5CCOCC5)cc4)cccc3C2=O)C(=O)N1 [Compound 8]", "Assigned Category": "group 1"}
{"Molecule": "O=C1CCC[C@H](N2Cc3c(OCc4ccc(CN5CCOCC5)cc4)cccc3C2=O)C(=O)N1 [Compound 1]", "Assigned Category": "group 2"}
{"Molecule": "O=C1CCC[C@H](N2Cc3c(OCc4ccc(CN5CCOc6ccccc65)cc4)cccc3C2=O)C(=O)N1 [Compound 2]", "Assigned Category": "group 2"}
{"Molecule": "O=C1CCC[C@H](N2Cc3c(OCCc4ccc(CN5CCOCC5)cc4)cccc3C2=O)C(=O)N1 [Compound 26]", "Assigned Category": "group 2"}
{"Molecule": "Cc1cnc(Nc2ccc(OCCCNC(=O)NCc3ccc(COc4cccc5c4CN([C@H]4CCCC(=O)NC4=O)C5=O)cc3)cc2)nc1Nc1cccc(S(=O)(=O)NC(C)(C)C)c1 [Compound 13]", "Assigned Category": "group 1"}
{"Molecule": "O=C1CCC[C@H](N2C(=O)c3cccc(OCc4ccc(CN5CCOCC5)cc4)c3C2=O)C(=O)N1 [Compound 11]", "Assigned Category": "group 1"}
{"Molecule": "O=C1CCC[C@H](N2Cc3c(OCc4ccc(C5CCNCC5)cc4)cccc3C2=O)C(=O)N1 [Compound 4]", "Assigned Category": "group 1"}
{"Molecule": "Cc1cnc(Nc2ccc(OCCCNC(=O)NCc3ccc(COc4cc(F)cc5c4CN([C@H]4CCC(=O)NC4=O)C5=O)cc3)cc2)nc1Nc1cccc(S(=O)(=O)NC(C)(C)C)c1 [Compound 18]", "Assigned Category": "group 3"}

---

# Test system: TNFα
# Protocol Notes: PBMC assay, LPS-induced TNFα (Meso Scale)
# Assay type: cell-based
# Setup Conditions: Homo sapiens, compound at 1 μM, PBMCs, 100 ng/mL LPS 18-24 hrs
Where inhibition at 1 µM equals or exceeds 70%, the correct label is 1 (yes); where it does not, the label is 0 (no).

{"Compound": "Cc1cnc(Nc2ccc(OCCCNCC(=O)NCc3ccc(COc4cccc5c4CN(C4CCC(=O)NC4=O)C5=O)cc3)cc2)nc1Nc1cccc(S(=O)(=O)NC(C)(C)C)c1 (stereo not shown)", "Assigned Category": "1 (yes)"}
{"Compound": "Cc1cnc(Nc2ccc(OCCCNCC(=O)NCc3ccc(COc4cccc5c4CN([C@H]4CCCC(=O)NC4=O)C5=O)cc3)cc2)nc1Nc1cccc(S(=O)(=O)NC(C)(C)C)c1", "Assigned Category": "1 (yes)"}
{"Compound": "Cc1cnc(Nc2ccc(OCCCNCC(=O)NCc3ccc(COc4cc(F)cc5c4CN([C@H]4CCC(=O)NC4=O)C5=O)cc3)cc2)nc1Nc1cccc(S(=O)(=O)NC(C)(C)C)c1", "Assigned Category": "0 (no)"}
{"Compound": "Cc1cnc(Nc2ccc(OCCCNC(=O)NCc3ccc4c(c3OCc3ccc(CN5CCOCC5)cc3)CN([C@H]3CCC(=O)NC3=O)C4=O)cc2)nc1Nc1cccc(S(=O)(=O)NC(C)(C)C)c1", "Assigned Category": "1 (yes)"}
{"Compound": "Cc1cnc(Nc2ccc(OCCCNC(=O)NCc3ccc(COc4cccc5c4CN([C@H]4CCC(=O)NC4=O)C5=O)cc3)cc2)nc1Nc1cccc(S(=O)(=O)NC(C)(C)C)c1", "Assigned Category": "0 (no)"}
{"Compound": "Cc1cnc(Nc2ccc(OCCCNCC(=O)NCc3ccc(COc4cc(F)cc5c4CN([C@H]4CCCC(=O)NC4=O)C5=O)cc3)cc2)nc1Nc1cccc(S(=O)(=O)NC(C)(C)C)c1", "Assigned Category": "0 (no)"}

Origin of values: patent US10927104B2
